molecular target: Histone deacetylase 1 (Mus musculus, UniProt O09106); details: b16/bl6
Sequence (O09106 whole entry): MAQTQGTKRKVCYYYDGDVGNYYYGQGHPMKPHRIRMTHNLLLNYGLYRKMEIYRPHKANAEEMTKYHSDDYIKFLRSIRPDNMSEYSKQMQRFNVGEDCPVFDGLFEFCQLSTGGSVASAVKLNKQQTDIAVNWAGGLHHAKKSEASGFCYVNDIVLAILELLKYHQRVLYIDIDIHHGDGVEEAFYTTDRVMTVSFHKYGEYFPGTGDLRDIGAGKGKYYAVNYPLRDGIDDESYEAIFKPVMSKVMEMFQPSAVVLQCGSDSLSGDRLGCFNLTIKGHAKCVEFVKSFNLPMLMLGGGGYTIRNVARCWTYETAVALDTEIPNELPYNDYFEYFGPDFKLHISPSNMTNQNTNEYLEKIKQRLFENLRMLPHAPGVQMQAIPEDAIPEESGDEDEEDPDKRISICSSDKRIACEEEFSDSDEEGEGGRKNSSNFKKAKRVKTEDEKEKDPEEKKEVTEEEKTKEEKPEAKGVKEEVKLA
Description: Inhibitory activity against histone deacetylases (HDAC1) prepared from mouse melanoma B16/BL6 cells
pIC50: −log10 of the molar value.

| CHEMICAL_STRING | pIC50 |
| --- | --- |
| CC[C@@H](C)[C@@H]1NC(=O)[C@@H](Cc2ccc(OC)cc2)NC(=O)[C@H](CCCCCN(O)C=O)NC(=O)[C@@H]2CCCN2C1=O | 7.48 |

----------
target: Protein deacetylase HDAC6 (Mus musculus, UniProt Q9Z2V5); test: Inhibitory activity against histone deacetylase 6 prepared from mouse melanoma B16/BL6 cells; format: cell-based
Sequence (Q9Z2V5 whole entry): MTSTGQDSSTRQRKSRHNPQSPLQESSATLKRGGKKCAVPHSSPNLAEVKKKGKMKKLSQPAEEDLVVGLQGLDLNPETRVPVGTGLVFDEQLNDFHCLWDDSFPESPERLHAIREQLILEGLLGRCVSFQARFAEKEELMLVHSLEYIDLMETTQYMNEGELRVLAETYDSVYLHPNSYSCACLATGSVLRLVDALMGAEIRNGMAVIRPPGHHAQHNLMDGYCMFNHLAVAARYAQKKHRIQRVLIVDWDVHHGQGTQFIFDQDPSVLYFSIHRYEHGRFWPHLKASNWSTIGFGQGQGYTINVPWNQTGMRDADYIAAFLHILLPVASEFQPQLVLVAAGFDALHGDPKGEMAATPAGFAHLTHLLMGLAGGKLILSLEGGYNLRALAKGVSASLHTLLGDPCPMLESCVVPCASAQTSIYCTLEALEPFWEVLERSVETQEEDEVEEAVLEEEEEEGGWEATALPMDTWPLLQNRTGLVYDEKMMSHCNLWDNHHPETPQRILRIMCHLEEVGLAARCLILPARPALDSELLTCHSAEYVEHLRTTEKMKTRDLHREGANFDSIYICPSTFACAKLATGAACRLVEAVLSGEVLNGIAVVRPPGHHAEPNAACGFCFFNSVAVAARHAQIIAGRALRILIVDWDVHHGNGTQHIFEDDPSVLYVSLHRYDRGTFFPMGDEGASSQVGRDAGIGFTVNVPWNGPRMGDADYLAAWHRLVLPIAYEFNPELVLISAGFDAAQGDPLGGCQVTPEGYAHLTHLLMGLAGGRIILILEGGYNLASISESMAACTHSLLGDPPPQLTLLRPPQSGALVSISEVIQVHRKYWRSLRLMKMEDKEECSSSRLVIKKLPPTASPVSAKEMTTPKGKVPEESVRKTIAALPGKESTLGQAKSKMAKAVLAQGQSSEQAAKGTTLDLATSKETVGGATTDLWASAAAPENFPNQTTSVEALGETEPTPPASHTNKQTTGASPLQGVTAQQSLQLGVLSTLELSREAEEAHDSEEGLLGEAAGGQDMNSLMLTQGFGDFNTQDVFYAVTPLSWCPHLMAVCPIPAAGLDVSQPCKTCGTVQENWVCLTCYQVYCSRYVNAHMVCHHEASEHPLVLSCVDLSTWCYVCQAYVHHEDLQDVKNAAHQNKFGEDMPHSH
pIC50: −log10 of the molar value.

| CHEMICAL_STRING | TARGET_UNDER_TEST | pIC50 |
| --- | --- | --- |
| CC[C@@H](C)[C@@H]1NC(=O)[C@@H](Cc2ccc(OC)cc2)NC(=O)[C@H](CCCCCN(O)C=O)NC(=O)[C@H]2CCCN2C1=O | Protein deacetylase HDAC6 (Mus musculus, UniProt Q9Z2V5) | 6.75 |
| CC[C@@H](C)[C@@H]1NC(=O)[C@@H](Cc2ccc(OC)cc2)NC(=O)[C@H](CCCCCN(O)C=O)NC(=O)[C@H]2CCCCN2C1=O | Protein deacetylase HDAC6 (Mus musculus, UniProt Q9Z2V5) | 6.11 |

----------
Molecular target: Histone deacetylase 8 (Mus musculus, UniProt Q8VH37)
Sequence (Q8VH37 whole entry): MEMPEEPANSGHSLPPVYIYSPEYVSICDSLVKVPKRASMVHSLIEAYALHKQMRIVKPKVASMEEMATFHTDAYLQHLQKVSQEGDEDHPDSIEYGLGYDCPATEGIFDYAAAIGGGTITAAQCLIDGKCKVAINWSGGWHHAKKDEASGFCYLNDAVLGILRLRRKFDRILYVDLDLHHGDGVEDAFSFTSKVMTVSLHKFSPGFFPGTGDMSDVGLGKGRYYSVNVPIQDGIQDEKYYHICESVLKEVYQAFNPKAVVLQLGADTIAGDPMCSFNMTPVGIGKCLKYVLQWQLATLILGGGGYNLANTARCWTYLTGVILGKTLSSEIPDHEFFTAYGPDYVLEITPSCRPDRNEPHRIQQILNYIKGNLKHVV
Experiment: Inhibitory activity against histone deacetylase 8 prepared from mouse melanoma B16/BL6 cells
Type: cell-based
Details: b16/bl6
RECORDED_METRIC: IC50 (nM)

| CHEMICAL_STRING | MEASURED |
| --- | --- |
| CC[C@@H](C)[C@@H]1NC(=O)[C@@H](Cc2ccc(OC)cc2)NC(=O)[C@H](CCCCCN(O)C=O)NC(=O)[C@@H]2CCCN2C1=O | 34 |

----------
Here's a batch of compounds along with measured IC50 for Histone deacetylase 1 (Mus musculus).
Where a SMILES comes first, the peptide text is derived from it. [ ]: non-standard residue; d: D form. The star is where a group is joined. Asu = N[C@@H](CCCCCC(=O)O)C(=O)O; NHOH = ON*

| COMPOUND | MEASURE_UNIT | IC50 |
| --- | --- | --- |
| CC[C@@H](C)[C@@H]1NC(=O)[C@@H](Cc2ccc(OC)cc2)NC(=O)[C@H](CCCCCN(O)C=O)NC(=O)[C@H]2CCCN2C1=O | nM | 67 |
| CC[C@@H](C)[C@@H]1NC(=O)[C@@H](Cc2ccc(OC)cc2)NC(=O)[C@H](CCCCCN(O)C=O)NC(=O)[C@H]2CCCCN2C1=O | nM | 26 |
| CC[C@H](C)[C@@H]1NC(=O)[C@@H](Cc2ccc(OC)cc2)NC(=O)[C@H](CCCCCC(=O)NO)NC(=O)[C@H]2CCCN2C1=O (cyclo([Asu](NHOH)[dY](Me)I[dP])) | nM | 0.4 |

----------
Molecular target: Histone deacetylase 8 (Mus musculus, UniProt Q8VH37)
Sequence (Q8VH37 whole entry): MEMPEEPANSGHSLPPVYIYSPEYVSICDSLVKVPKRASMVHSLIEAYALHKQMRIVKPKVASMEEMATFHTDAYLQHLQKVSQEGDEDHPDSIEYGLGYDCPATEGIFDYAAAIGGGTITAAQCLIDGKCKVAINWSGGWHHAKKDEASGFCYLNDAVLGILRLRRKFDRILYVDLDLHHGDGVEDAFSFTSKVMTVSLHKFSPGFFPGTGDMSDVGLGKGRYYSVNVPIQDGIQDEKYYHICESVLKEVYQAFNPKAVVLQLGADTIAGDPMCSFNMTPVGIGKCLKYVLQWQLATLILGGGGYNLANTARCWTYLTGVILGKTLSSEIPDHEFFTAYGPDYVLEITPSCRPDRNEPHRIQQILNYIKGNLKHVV
Assay: Inhibitory activity against histone deacetylase 8 prepared from mouse melanoma B16/BL6 cells
Type: cell-based

| CHEMICAL_STRING | MEASURE_UNIT | IC50 |
| --- | --- | --- |
| CC[C@@H](C)[C@@H]1NC(=O)[C@@H](Cc2ccc(OC)cc2)NC(=O)[C@H](CCCCCN(O)C=O)NC(=O)[C@H]2CCCN2C1=O | nM | 59 |
| CC[C@@H](C)[C@@H]1NC(=O)[C@@H](Cc2ccc(OC)cc2)NC(=O)[C@H](CCCCCN(O)C=O)NC(=O)[C@H]2CCCCN2C1=O | nM | 46 |
